read-out: ATP-citrate lyase (ACLY), ACLY (gene 47); experiment: LTEA_HepaRG_ACLY: Life Technologies and Expression Analysis (LTEA) Assay for ATP-citrate lyase (ACLY) using HepaRG (AID 2283466); settings: mRNA level, 48 h; actives raise or lower the signal
The source made the active and inactive calls. The calls were made as follows: active = hit-call score of the fitted dose curve at least 0.9, where 1 is the maximum; inactive = score below 0.9.
Labels: 1.0 for active, 0.0 for inactive

[
  {
    "COMPOUND": "CCOc1cc(C(C)(C)C)ccc1C1COC(c2c(F)cccc2F)=N1 (stereo not given)",
    "CATEGORY LABEL": 0.0
  },
  {
    "COMPOUND": "N#CN=C1SCCN1Cc1ccc(Cl)nc1",
    "CATEGORY LABEL": 0.0
  },
  {
    "COMPOUND": "CC(C)NC(=O)N1CC(=O)N(c2cc(Cl)cc(Cl)c2)C1=O",
    "CATEGORY LABEL": 0.0
  },
  {
    "COMPOUND": "O=C1C2CC=CCC2C(=O)N1SC(Cl)(Cl)Cl (stereo not given)",
    "CATEGORY LABEL": 0.0
  },
  {
    "COMPOUND": "CC(C)N1C(=O)c2ccccc2NS1(=O)=O",
    "CATEGORY LABEL": 0.0
  },
  {
    "COMPOUND": "CN/C(=N\\[N+](=O)[O-])NCc1cnc(Cl)s1",
    "CATEGORY LABEL": 0.0
  },
  {
    "COMPOUND": "COc1cc(OC)nc(NC(=O)NS(=O)(=O)c2ncccc2OCC(F)(F)F)n1",
    "CATEGORY LABEL": 0.0
  },
  {
    "COMPOUND": "Nc1c(Cl)c(Cl)nc(C(=O)O)c1Cl",
    "CATEGORY LABEL": 0.0
  },
  {
    "COMPOUND": "COCc1cnc(C2=NC(C)(C(C)C)C(=O)N2)c(C(=O)O)c1 (stereo not given)",
    "CATEGORY LABEL": 0.0
  },
  {
    "COMPOUND": "CC(C)Nc1nc(Cl)nc(NC(C)C)n1",
    "CATEGORY LABEL": 0.0
  },
  {
    "COMPOUND": "COC(=O)c1c(C(F)F)nc(C(F)(F)F)c(C2=NCCS2)c1CC(C)C",
    "CATEGORY LABEL": 0.0
  },
  {
    "COMPOUND": "COc1cc(Cl)c(OC)cc1Cl",
    "CATEGORY LABEL": 0.0
  },
  {
    "COMPOUND": "CCOc1nc(F)cc2nc(S(=O)(=O)Nc3c(Cl)cccc3Cl)nn12",
    "CATEGORY LABEL": 0.0
  },
  {
    "COMPOUND": "CCNC(=O)NC(=O)C(C#N)=NOC",
    "CATEGORY LABEL": 0.0
  },
  {
    "COMPOUND": "CCC(C)n1c(=O)[nH]c(C)c(Br)c1=O (stereo not given)",
    "CATEGORY LABEL": 0.0
  },
  {
    "COMPOUND": "CC(C)Oc1cccc(NC(=O)c2ccccc2C(F)(F)F)c1",
    "CATEGORY LABEL": 0.0
  },
  {
    "COMPOUND": "Clc1nc(Cl)nc(Nc2ccccc2Cl)n1",
    "CATEGORY LABEL": 0.0
  },
  {
    "COMPOUND": "COc1ccc(-c2ccccc2)cc1NNC(=O)OC(C)C",
    "CATEGORY LABEL": 0.0
  },
  {
    "COMPOUND": "CCOC(=O)C(C)OC(=O)c1cc(Oc2ccc(C(F)(F)F)cc2Cl)ccc1[N+](=O)[O-] (stereo not given)",
    "CATEGORY LABEL": 1.0
  },
  {
    "COMPOUND": "C=CCOC(=O)C(C)(C)OC(=O)c1cc(-n2c(=O)cc(C(F)(F)F)n(C)c2=O)ccc1Cl",
    "CATEGORY LABEL": 0.0
  },
  {
    "COMPOUND": "CCCCC(C#N)(Cn1cncn1)c1ccc(Cl)cc1 (stereo not given)",
    "CATEGORY LABEL": 1.0
  },
  {
    "COMPOUND": "CC1(C)CON(Cc2ccccc2Cl)C1=O",
    "CATEGORY LABEL": 0.0
  },
  {
    "COMPOUND": "N#Cc1c[nH]cc1-c1cccc2c1OC(F)(F)O2",
    "CATEGORY LABEL": 0.0
  },
  {
    "COMPOUND": "Cc1nc(N(C)C)nc(OC(=O)N(C)C)c1C",
    "CATEGORY LABEL": 0.0
  },
  {
    "COMPOUND": "Cc1cc(C)nc(Nc2ccccc2)n1",
    "CATEGORY LABEL": 0.0
  }
]

----------
assay: BSK_3C_Proliferation: Cell Proliferation Assessment in the BioMAP Diversity Plus: 3C Assay (AID 2283006); conditions: primary human endothelial cells (HUVEC)
Activity calls are given as the source filed them. Rule for the calls: active = hit-call score of the fitted dose curve at least 0.9, where 1 is the maximum; inactive = score below 0.9.
Outcome codes: 1 (active), -1 (inactive)

[
  {
    "COMPOUND": "CC(C)C1(C)N=C(c2ncccc2C(=O)O)NC1=O (configuration not stated)",
    "CATEGORY LABEL": -1
  },
  {
    "COMPOUND": "CSC(=O)c1c(C(F)F)nc(C(F)(F)F)c(C(=O)SC)c1CC(C)C",
    "CATEGORY LABEL": 1
  },
  {
    "COMPOUND": "Cn1c(-c2ccccc2)cc(-c2ccccc2)[n+]1C",
    "CATEGORY LABEL": -1
  },
  {
    "COMPOUND": "O=C(Nc1ccccc1-c1ccc(Cl)cc1)c1cccnc1Cl",
    "CATEGORY LABEL": -1
  },
  {
    "COMPOUND": "COc1cc(Cl)c(OC)cc1Cl",
    "CATEGORY LABEL": -1
  },
  {
    "COMPOUND": "COc1ccc(-c2ccccc2)cc1NNC(=O)OC(C)C",
    "CATEGORY LABEL": -1
  },
  {
    "COMPOUND": "CNC(=O)N(C)c1nnc(C(C)(C)C)s1",
    "CATEGORY LABEL": -1
  },
  {
    "COMPOUND": "COCc1cnc(C2=NC(C)(C(C)C)C(=O)N2)c(C(=O)O)c1 (configuration not stated)",
    "CATEGORY LABEL": -1
  },
  {
    "COMPOUND": "CCCCC(C#N)(Cn1cncn1)c1ccc(Cl)cc1 (configuration not stated)",
    "CATEGORY LABEL": -1
  },
  {
    "COMPOUND": "COC(=O)NS(=O)(=O)c1ccc(N)cc1",
    "CATEGORY LABEL": -1
  },
  {
    "COMPOUND": "CC1(C)CCC(=Cc2ccc(Cl)cc2)C1(O)Cn1cncn1 (configuration not stated)",
    "CATEGORY LABEL": -1
  },
  {
    "COMPOUND": "O=C1C2CC=CCC2C(=O)N1SC(Cl)(Cl)Cl (configuration not stated)",
    "CATEGORY LABEL": 1
  }
]

----------
read-out: ATP-citrate lyase (ACLY), ACLY (gene 47); assay: LTEA_HepaRG_ACLY: Life Technologies and Expression Analysis (LTEA) Assay for ATP-citrate lyase (ACLY) using HepaRG (AID 2283466); conditions: mRNA level, 48 h; actives raise or lower the signal
Activity calls are given as the source filed them. Rule for the calls: active = hit-call score of the fitted dose curve at least 0.9, where 1 is the maximum; inactive = score below 0.9.
Possible outcomes: True = active, False = inactive

[
  {
    "COMPOUND": "Clc1cccc(C(Cl)(Cl)Cl)n1",
    "CATEGORY LABEL": "False"
  },
  {
    "COMPOUND": "CC1(C)CCC(=Cc2ccc(Cl)cc2)C1(O)Cn1cncn1 (configuration not stated)",
    "CATEGORY LABEL": "True"
  },
  {
    "COMPOUND": "CC(C)N1C(=O)N(c2ccccc2)CSC1=NC(C)(C)C",
    "CATEGORY LABEL": "True"
  },
  {
    "COMPOUND": "COP(=S)(OC)SCn1nnc2ccccc2c1=O",
    "CATEGORY LABEL": "False"
  },
  {
    "COMPOUND": "Nc1c(Cl)c(F)nc(OCC(=O)O)c1Cl",
    "CATEGORY LABEL": "False"
  },
  {
    "COMPOUND": "CC(C)=CC1C(C(=O)OCc2coc(Cc3ccccc3)c2)C1(C)C (configuration not stated)",
    "CATEGORY LABEL": "False"
  },
  {
    "COMPOUND": "N#Cc1c(Cl)cccc1Cl",
    "CATEGORY LABEL": "False"
  }
]
